- Test system: BT-20 (Breast Carcinoma)
- assay_remarks: combination Emax (second highest fraction inhibited in the dose matrix, 72 h); higher = more inhibition; extreme values may be limits of the assay
Kindly state combination Emax for each of the entries shown.
# respond with the number and nothing more

Please tell me the measured combination Emax for Cc1cc2ncnn2cc1Nc1ncc2c(n1)n(C1CCOCC1)c(=O)n2C [AZD7648] + C[C@@H]1COCCN1C2=NC(=NC(=C2)C3(CC3)[S@](=N)(=O)C)C4=C5C=CNC5=NC=C4 [AZD6738] (first compound max 10 µM, 7x7, partner max 10 µM) ; system: BT-20 (Breast Carcinoma).
0.479

Please tell me the measured combination Emax for C=CCn1c(=O)c2cnc(Nc3ccc(N4CCN(C)CC4)cc3)nc2n1-c1cccc(C(C)(C)O)n1 [AZD1775] + O=C(c1cc(Cc2n[nH]c(=O)c3ccccc23)ccc1F)N1CCN(C(=O)C2CC2)CC1 [Olaparib] (first compound max 1 µM, partner max 10 µM) ; system: BT-20 (Breast Carcinoma).
0.518

Please tell me the measured combination Emax for COc1cc2ncnc(Nc3ccc(F)c(Cl)c3)c2cc1OCCCN1CCOCC1 [Gefitinib] + CC(C)n1c(=O)n(C)c2cnc3cc(F)c(-c4ccc(OCCCN5CCCCC5)nc4)cc3c21 [AZD1390] (first compound max 10 µM, 7x7, partner max 0.3 µM) ; system: BT-20 (Breast Carcinoma).
0.244

Please tell me the measured combination Emax for C[C@@H](c1ccc2nccn2c1)n1nnc2ncc(-c3cnn(C)c3)nc21 [Savolitinib] + CC1(C)CCC(CN2CCN(c3ccc(C(=O)NS(=O)(=O)c4ccc(NCC5CCOCC5)c([N+](=O)[O-])c4)c(Oc4cnc5[nH]ccc5c4)c3)CC2)=C(c2ccc(Cl)cc2)C1 [Venetoclax] (first compound max 1 µM, 7x7, partner max 1 µM) ; system: BT-20 (Breast Carcinoma).
0.0828

Please tell me the measured combination Emax for C=CCn1c(=O)c2cnc(Nc3ccc(N4CCN(C)CC4)cc3)nc2n1-c1cccc(C(C)(C)O)n1 [AZD1775] + C1CN(CCC1(C(=O)N[C@@H](CCO)C2=CC=C(C=C2)Cl)N)C3=NC=NC4=C3C=CN4 [Capivasertib] (first compound max 3 µM, partner max 3 µM) ; system: BT-20 (Breast Carcinoma).
0.69

Please tell me the measured combination Emax for CCc1c2c(nc3ccc(O)cc13)-c1cc3c(c(=O)n1C2)COC(=O)[C@]3(O)CC [SN-38] + O=C(c1cc(Cc2n[nH]c(=O)c3ccccc23)ccc1F)N1CCN(C(=O)C2CC2)CC1 [Olaparib] (first compound max 0.3 µM, 7x7, partner max 10 µM) ; system: BT-20 (Breast Carcinoma).
0.855

Please tell me the measured combination Emax for Cc1c2c(nn1C)CSCc1cc(n(C)n1)CSc1cc(c3ccccc3c1)OCCCc1c(C(=O)O)n(C)c3c-2c(Cl)ccc13 [AZD5991] + C[C@@H](Nc1cc(F)cc(F)c1)c1cc(C(=O)N(C)C)cc2c(=O)cc(N3CCOCC3)oc12 [AZD8186] (first compound max 1 µM, 7x7, partner max 3 µM) ; system: BT-20 (Breast Carcinoma).
0.614

----------
Kindly state combination Emax for each of the entries shown.
- System: NH-12 (Neuroblastoma)
- assay_remarks: combination Emax (second highest fraction inhibited in the dose matrix, 72 h); higher = more inhibition; extreme values may be limits of the assay
# respond with the number and nothing more

Please look at this molecule and report its combination Emax: CN(CCO)CC[C@H](CSc1ccccc1)Nc1ccc(S(=O)(=O)NC(=O)c2ccc(N3CCC([C@@H](O)c4ccccc4-c4ccc(Cl)cc4)CC3)cc2)cc1S(=O)(=O)C(F)(F)F [AZD4320] + C=CCn1c(=O)c2cnc(Nc3ccc(N4CCN(C)CC4)cc3)nc2n1-c1cccc(C(C)(C)O)n1 [AZD1775] (first compound max 1 µM, partner max 1 µM)
0.98

Please look at this molecule and report its combination Emax: COc1nnc2ccc(N3CCC(c4ccc(OCCN5CCN(C)C(=O)[C@H]5C)cc4)CC3)nn12 [AZD5153] + C=CCn1c(=O)c2cnc(Nc3ccc(N4CCN(C)CC4)cc3)nc2n1-c1cccc(C(C)(C)O)n1 [AZD1775] (first compound max 1 µM, partner max 1 µM)
0.91
